# SYSTEM TESTED: Ras-related protein Rab-7a (Canis lupus familiaris)
# MEASUREMENT NOTES: Rab7 GTP binding inhibitors, analog potency, SAR follow-up, biochemical, oxadiazole analogs, multiplex bead flow cytometry (AID 2031)
# DETAILS: inactive by the depositor's call
OBSERVATION TYPE: EC50 (µM)
Give your result in µM as a bare value.

Examples from the recorded data:
{"columns": ["COMPOUND", "EC50 [µM]"],
 "data": [
  ["COc1ccc(-c2noc(CCC(=O)N3CCN(c4ccc(Cl)cc4)CC3)n2)cc1 [UNM-0000306121]", 30],
  ["Cc1ccc(C)c(N2CCN(C(=O)CCc3nc(-c4ccc(Br)cc4)no3)CC2)c1 [UNM-0000306072]", 1.6],
  ["COc1ccc(-c2noc(CCC(=O)N3CCC(c4cc(C)ccc4C)CC3)n2)cc1 [KUC103432N]", 1.33],
  ["COc1ccc(-c2noc(CCCC(=O)N3CCN(c4cc(C)ccc4C)CC3)n2)cc1 [KUC103353N]", 14.4],
  ["COc1ccc(-c2noc(CCC(=O)N3CCN(c4cccc(C)c4)CC3)n2)cc1 [UNM-0000306125]", 30],
  ["COc1ccc(-c2noc(CCC(=O)N3CCN(c4ccccc4OC)CC3)n2)cc1", 30],
  ["COc1ccc(-c2noc(CCC(=O)N3CCN(c4cccc(Cl)c4)CC3)n2)cc1", 31],
  ["COc1ccc(-c2noc(CCCCC(=O)N3CCN(c4cc(C)ccc4C)CC3)n2)cc1", 30]
]}

Continue with the compound presented below.
Task: Any idea what EC50 was measured for Cc1ccc(C)c(N2CCN(C(=O)CCc3nc(-c4ccc(Cl)cc4)no3)CC2)c1 [UNM-0000306083] ?
Output: 2.91

----------
The entries below come with measured EC50 values attached.
# SYSTEM TESTED: Ras-related protein Rab-7a (Canis lupus familiaris, UniProt P18067)
# Sequence (P18067 whole entry): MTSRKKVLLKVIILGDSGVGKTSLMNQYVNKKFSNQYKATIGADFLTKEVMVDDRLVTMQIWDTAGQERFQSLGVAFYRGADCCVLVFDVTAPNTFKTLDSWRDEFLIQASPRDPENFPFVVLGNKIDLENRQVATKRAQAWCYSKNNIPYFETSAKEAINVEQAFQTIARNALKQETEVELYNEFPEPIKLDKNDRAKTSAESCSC
# MEASUREMENT NOTES: Rab7 GTP binding inhibitors, analog potency, SAR follow-up, biochemical, oxadiazole analogs, multiplex bead flow cytometry (AID 2031)
# DETAILS: inactive by the depositor's call
Give your result in µM as a bare value.

Examples from the recorded data:
{"columns": ["COMPOUND", "SYSTEM TESTED", "EC50 (µM)"],
 "data": [
  ["Cc1ccc(C)c(N2CCN(C(=O)CCc3nc(-c4ccccc4C(F)(F)F)no3)CC2)c1", "Ras-related protein Rab-7a (Canis lupus familiaris, UniProt P18067)", 30],
  ["COc1ccc(-c2noc(CCC(=O)N3CCN(c4ccc(C)cc4)CC3)n2)cc1", "Ras-related protein Rab-7a (Canis lupus familiaris, UniProt P18067)", 30],
  ["Cc1ccc(-c2noc(CCC(=O)N3CCN(c4cc(C)ccc4C)CC3)n2)cc1", "Ras-related protein Rab-7a (Canis lupus familiaris, UniProt P18067)", 4.39],
  ["Cc1ccc(C)c(N2CCN(C(=O)CCc3nc(-c4ccc(C(F)(F)F)cc4)no3)CC2)c1", "Ras-related protein Rab-7a (Canis lupus familiaris, UniProt P18067)", 30]
]}

Continue with the compound presented below.
Task: Any idea what EC50 was measured for Cc1ccc(C)c(N2CCN(C(=O)CCc3nc(-c4ccc(F)cc4)no3)CC2)c1 [KUC103364N] ?
Output: 0.664
